- study target: Cytochrome P450 3A4 (Homo sapiens)
- experiment summary: qHTS Assay for Inhibitors and Substrates of Cytochrome P450 3A4 (AID 884); also: nearly all actives have a fitted effect of over 50% in size
- assay conditions: recombinant CYP3A4, Luciferin-PPXE luminescence; series mostly up to 57.1 µM
Inconclusive results are not listed. Activity calls are given as the source filed them. Calls follow the shape of the dose curve; as a rule, active = well fitted inhibition curve with a large enough effect; inconclusive = small, poorly fitted or top-dose-only effect; inactive = no such curve, though single readings can be large or run the other way.
Would you mind answering with one of these outcomes? active, inactive

Sample answers from the record:
{"columns": ["smiles text", "qualitative label"],
 "data": [
  ["O=S(=O)(c1ccccc1)N1CCC2(CCCN(C(c3ccccc3)c3ccccc3)C2)CC1", "active"],
  ["c1ccc(Nc2nc(-c3ccc4c(c3)OCO4)nc3ccccc23)cc1", "active"],
  ["c1ccc(Nc2ncncc2-c2ccoc2)cc1", "active"]
]}

What call does the record list for "Cc1ccccc1-c1nccc(NCc2cccnc2)n1" ?
active

// repeat for "COc1cccc(-c2ccc3ncnc(N(C)C)c3c2)c1" and report
active

// repeat for "CNc1nc(-c2cccnc2)nc2ccccc12" and report
active

// repeat for "COc1ccc(NC(=O)N2CCC3(CC2)CCN(C(=O)c2cccn2C)CC3)cc1" and report
inactive

// repeat for "O=C(c1cccc(F)c1)N1CCC2(CC1)CN(c1ncccn1)C2" and report
inactive

// repeat for "Clc1ccccc1-c1nc(NCc2cccnc2)c2ccccc2n1" and report
active

// repeat for "O=c1c(-c2ccc(Cl)cc2)nc2cnc(N3CCOCC3)nc2n1CCc1ccccc1" and report
inactive
